These data points were gathered from ChEMBL document CHEMBL3991601.

Test Target: Maternal embryonic leucine zipper kinase (Homo sapiens, UniProt Q14680); note: in the data inactive means no Kd found up to 30 µM
Sequence (Q14680 whole entry): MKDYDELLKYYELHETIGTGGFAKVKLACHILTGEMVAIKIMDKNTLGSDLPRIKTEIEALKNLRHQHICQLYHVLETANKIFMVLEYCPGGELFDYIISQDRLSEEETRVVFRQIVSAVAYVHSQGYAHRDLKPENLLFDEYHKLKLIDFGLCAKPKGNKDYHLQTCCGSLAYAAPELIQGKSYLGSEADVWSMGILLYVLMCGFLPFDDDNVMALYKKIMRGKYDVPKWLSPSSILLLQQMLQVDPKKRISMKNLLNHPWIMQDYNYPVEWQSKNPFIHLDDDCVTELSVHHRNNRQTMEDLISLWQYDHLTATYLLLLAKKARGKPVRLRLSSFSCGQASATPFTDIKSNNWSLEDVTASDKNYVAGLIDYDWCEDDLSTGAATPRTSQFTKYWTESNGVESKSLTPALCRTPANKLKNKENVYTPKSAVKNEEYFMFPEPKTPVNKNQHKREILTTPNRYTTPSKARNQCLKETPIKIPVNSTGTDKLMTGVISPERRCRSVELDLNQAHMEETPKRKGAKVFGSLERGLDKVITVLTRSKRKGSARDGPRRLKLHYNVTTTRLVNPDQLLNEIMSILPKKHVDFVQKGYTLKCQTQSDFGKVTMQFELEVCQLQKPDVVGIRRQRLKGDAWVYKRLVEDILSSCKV
Calls of active or inactive are those of the source.
Return exactly one item of active, inactive

• C=CC(=O)Nc1cccc(Nc2nc(Nc3ccc(N4CCN(C(C)=O)CC4)cc3OC)ncc2C(F)(F)F)c1 = inactive
• O[C@H]1CC[C@H](Nc2ncc3nc(Nc4c(F)cc(F)cc4F)n([C@H]4CCOC4)c3n2)CC1 = inactive
• C=CC(=O)Nc1cc(Nc2nccc(-c3cn(C)c4ccccc34)n2)c(OC)cc1N(C)CCN(C)C = inactive
• CNC(=O)c1cc(COc2nnc(Nc3ccc(Cl)cc3)c3ccoc23)ccn1 = inactive
• COc1cc(Nc2ncc(F)c(Nc3ccc4c(n3)N(COP(=O)(O)O)C(=O)C(C)(C)O4)n2)cc(OC)c1OC = inactive
• Cn1cc(-c2[nH]c3cc(NC(=O)[C@H](N)C4CCCCC4)cc4c3c2C=NNC4=O)cn1 = active
• COCCN1CCN(Cc2ccc(-c3n[nH]c4c3C(=O)c3c(NC(=O)NN5CCOCC5)cccc3-4)cc2)CC1 = active

Tell me the assay call for NC[C@@](O)(c1ccc(Cl)cc1)c1ccc(-c2cn[nH]c2)cc1 please. inactive

====

Test Target: Serine/threonine-protein kinase SIK2 (Homo sapiens, UniProt Q9H0K1); note: in the data inactive means no Kd found up to 30 µM
Sequence (Q9H0K1 whole entry): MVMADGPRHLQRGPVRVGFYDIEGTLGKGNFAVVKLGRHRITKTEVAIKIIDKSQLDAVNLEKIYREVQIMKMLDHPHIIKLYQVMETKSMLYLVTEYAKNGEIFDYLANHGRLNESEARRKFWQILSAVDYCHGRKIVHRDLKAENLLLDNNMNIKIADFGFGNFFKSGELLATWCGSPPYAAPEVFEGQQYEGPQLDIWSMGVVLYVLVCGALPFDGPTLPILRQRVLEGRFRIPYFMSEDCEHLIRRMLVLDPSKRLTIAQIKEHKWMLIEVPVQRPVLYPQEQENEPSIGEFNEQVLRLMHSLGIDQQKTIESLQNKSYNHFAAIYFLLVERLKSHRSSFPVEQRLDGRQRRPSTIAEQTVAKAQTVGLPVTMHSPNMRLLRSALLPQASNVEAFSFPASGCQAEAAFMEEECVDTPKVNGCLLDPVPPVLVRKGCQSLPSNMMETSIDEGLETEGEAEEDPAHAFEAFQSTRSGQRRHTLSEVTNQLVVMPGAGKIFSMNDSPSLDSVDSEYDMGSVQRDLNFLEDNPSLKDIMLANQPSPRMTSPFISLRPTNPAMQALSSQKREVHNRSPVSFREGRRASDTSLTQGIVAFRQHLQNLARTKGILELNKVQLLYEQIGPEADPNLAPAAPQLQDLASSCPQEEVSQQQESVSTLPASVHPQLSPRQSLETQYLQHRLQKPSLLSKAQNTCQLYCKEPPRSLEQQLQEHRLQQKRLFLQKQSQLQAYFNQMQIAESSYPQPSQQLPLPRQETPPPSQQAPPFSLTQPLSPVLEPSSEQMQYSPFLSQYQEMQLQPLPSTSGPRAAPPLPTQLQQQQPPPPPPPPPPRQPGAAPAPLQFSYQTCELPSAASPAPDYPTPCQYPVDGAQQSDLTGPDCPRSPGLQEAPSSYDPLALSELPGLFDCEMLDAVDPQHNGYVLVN
The source made the active and inactive calls.
Return exactly one item of active, inactive

As a guide, the following entries are already answered.
- CC[C@@](C)(Nc1ccnc(-c2c[nH]c3ncccc23)n1)C(=O)NCC(F)(F)F [DECERNOTINIB]: inactive
- CNC(=O)c1ccc(Nc2ncc(C(F)(F)F)c(NCc3nccnc3N(C)S(C)(=O)=O)n2)cc1 [DEFACTINIB]: inactive
- C=CC(=O)Nc1cc(Nc2nccc(-c3cn(C)c4ccccc34)n2)c(OC)cc1N(C)CCN(C)C [OSIMERTINIB]: inactive

Tell me the assay call for CC(C)CC(=O)Nc1[nH]nc2c1CN(C(=O)C1CCN(C)CC1)C2(C)C [PHA-793887] please. inactive

====

Calls of active or inactive are those of the source.
What follows is a collection of Kd values obtained with Eukaryotic peptide chain release factor GTP-binding subunit ERF3B (Homo sapiens).
Sequence (Q8IYD1 whole entry): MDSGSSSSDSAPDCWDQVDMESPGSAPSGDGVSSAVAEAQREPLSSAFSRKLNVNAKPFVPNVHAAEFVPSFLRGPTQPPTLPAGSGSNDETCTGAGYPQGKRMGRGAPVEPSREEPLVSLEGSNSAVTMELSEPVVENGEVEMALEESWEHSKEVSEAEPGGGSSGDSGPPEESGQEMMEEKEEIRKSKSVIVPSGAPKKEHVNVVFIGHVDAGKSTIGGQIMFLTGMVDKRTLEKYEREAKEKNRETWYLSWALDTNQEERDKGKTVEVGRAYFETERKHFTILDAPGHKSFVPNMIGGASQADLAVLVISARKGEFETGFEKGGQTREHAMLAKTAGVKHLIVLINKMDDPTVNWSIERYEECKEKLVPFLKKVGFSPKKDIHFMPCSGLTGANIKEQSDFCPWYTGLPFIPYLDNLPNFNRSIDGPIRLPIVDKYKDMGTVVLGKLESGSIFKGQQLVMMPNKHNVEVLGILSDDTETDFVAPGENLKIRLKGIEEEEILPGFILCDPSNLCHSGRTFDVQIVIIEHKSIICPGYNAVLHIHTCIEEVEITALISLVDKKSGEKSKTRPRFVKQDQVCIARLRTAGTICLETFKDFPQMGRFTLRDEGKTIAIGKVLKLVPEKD

Reference set, count: 8
* O=S(=O)(c1cccc2cnccc12)N1CCCNCC1 | > 30 µM (inactive)
* NC[C@@](O)(c1ccc(Cl)cc1)c1ccc(-c2cn[nH]c2)cc1 | > 30 µM (inactive)
* CN(C)C/C=C/C(=O)Nc1cc2c(Nc3ccc(F)c(Cl)c3)ncnc2cc1O[C@H]1CCOC1 | > 30 µM (inactive)
* O=C(NC[C@H](O)CO)c1ccncc1Nc1ccc(I)cc1F | > 30 µM (inactive)
* CC1(COc2ccc3c(c2)ncn3-c2ccc3cccc(N4CCC(N)CC4)c3n2)COC1 | > 30 µM (inactive)
* CC1(C)CNc2cc(NC(=O)c3cccnc3NCc3ccncc3)ccc21 | 0.003 µM
* COc1cccc2cc(-c3nc([C@H]4CC[C@H](C(=O)O)CC4)n4ncnc(N)c34)[nH]c12 | > 30 µM (inactive)
* O=S(=O)(c1cccc2c(O)nccc12)N1CCCNCC1 [HYDROXYFASUDIL] | > 30 µM (inactive)

Next molecule, please.
Item Cn1c(=O)n(-c2ccc(C(C)(C)C#N)cc2)c2c3cc(-c4cnc5ccccc5c4)ccc3ncc21 has what recorded Kd? > 30 µM (inactive)

====

What follows is a collection of Kd values obtained with 5'-AMP-activated protein kinase catalytic subunit alpha-1 (Homo sapiens).
Sequence (Q13131 whole entry): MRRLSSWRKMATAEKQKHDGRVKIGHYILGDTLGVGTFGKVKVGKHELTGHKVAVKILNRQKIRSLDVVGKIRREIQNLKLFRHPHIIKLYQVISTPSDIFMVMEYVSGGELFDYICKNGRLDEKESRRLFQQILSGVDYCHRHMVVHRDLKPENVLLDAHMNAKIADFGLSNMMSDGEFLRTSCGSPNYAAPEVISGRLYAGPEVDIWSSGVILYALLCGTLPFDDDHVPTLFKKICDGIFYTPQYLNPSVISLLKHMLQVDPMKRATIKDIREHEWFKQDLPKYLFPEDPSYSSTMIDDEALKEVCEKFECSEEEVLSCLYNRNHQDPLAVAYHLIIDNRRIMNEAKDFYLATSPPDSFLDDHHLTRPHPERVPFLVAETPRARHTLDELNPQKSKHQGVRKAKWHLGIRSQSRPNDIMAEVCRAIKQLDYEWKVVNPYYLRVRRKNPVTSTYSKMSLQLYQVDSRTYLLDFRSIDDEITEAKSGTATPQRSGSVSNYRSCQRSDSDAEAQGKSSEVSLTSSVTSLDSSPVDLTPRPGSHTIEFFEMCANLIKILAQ
Calls of active or inactive are those of the source.

Reference set, count: 2
- Cc1cc(-c2cc(OC(=O)c3ccccc3)ccc2Cl)cc2nnc(Nc3ccc(OCCN4CCCC4)cc3)nc12: > 30 µM (inactive)
- Cc1cc(C(=O)Nc2cc(Oc3ccc4nc(NC(=O)C5CC5)cn4n3)ccc2C)n(C)n1: > 30 µM (inactive)

Next compound, please.
Quick check: Kd on 5'-AMP-activated protein kinase catalytic subunit alpha-1 (Homo sapiens), item COc1ccc(-c2ccc3ncc4c(c3c2)n(-c2ccc(N3CCNCC3)c(C(F)(F)F)c2)c(=O)n4C)cn1 [BGT-226 FREE BASE] ? > 30 µM (inactive)

====

Test Target: MAP kinase-activated protein kinase 3 (Homo sapiens); note: in the data inactive means no Kd found up to 30 µM
Sequence (Q16644 whole entry): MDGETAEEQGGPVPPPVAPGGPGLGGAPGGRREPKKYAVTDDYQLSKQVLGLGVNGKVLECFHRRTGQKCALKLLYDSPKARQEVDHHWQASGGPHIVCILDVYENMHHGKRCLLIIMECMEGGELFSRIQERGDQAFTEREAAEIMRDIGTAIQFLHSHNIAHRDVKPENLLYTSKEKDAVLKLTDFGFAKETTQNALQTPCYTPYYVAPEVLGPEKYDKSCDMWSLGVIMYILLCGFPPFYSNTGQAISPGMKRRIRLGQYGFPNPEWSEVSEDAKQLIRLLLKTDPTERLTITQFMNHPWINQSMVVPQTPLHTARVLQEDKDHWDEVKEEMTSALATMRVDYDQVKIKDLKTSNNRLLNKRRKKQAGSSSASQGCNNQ
The source made the active and inactive calls.
Return exactly one item of YES = active, NO = inactive

As a guide, the following entries are already answered.
* COc1cc2ncnc(Nc3ccc(F)c(Cl)c3)c2cc1NC(=O)/C=C/CN1CCCCC1 [DACOMITINIB ANHYDROUS] | NO
* Cc1cc(-c2cc(OC(=O)c3ccccc3)ccc2Cl)cc2nnc(Nc3ccc(OCCN4CCCC4)cc3)nc12 | NO
* CCN1CCN(Cc2ccc(Nc3ncc(F)c(-c4cc(F)c5nc(C)n(C(C)C)c5c4)n3)nc2)CC1 | NO
* CCN(CCCOc1ccc2c(Nc3cc(CC(=O)Nc4cccc(F)c4)n[nH]3)ncnc2c1)CCOP(=O)(O)O | NO
* c1cc(OCCN2CCCCC2)cc(-c2n[nH]c3ccc(-c4nc[nH]n4)cc23)c1 | NO

Tell me the assay call for O=C(NOC[C@H](O)CO)c1ccc(F)c(F)c1Nc1ccc(I)cc1F please. NO

Tell me the assay call for COc1ccc2c(OCc3nnc4ccc(-c5ccccc5)nn34)ccnc2c1 please. NO

Tell me the assay call for Cn1c(=O)c(F)c(Nc2ccc(I)cc2F)c2c(=O)n(C[C@@H](O)CO)cnc21 please. NO

====

The source made the active and inactive calls.
What follows is a collection of Kd values obtained with Pyridoxal kinase (Homo sapiens).
Sequence (O00764 whole entry): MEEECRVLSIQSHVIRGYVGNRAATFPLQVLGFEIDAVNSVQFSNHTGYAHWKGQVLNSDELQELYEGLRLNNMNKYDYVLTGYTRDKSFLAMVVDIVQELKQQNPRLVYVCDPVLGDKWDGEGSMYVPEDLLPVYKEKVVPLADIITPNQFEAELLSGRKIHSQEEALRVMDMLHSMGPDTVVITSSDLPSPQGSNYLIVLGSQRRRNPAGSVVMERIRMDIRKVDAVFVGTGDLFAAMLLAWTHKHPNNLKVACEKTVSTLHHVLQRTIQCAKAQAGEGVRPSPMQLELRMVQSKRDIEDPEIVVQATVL

Reference set, count: 2
• COc1cccc2cc(-c3nc([C@H]4CC[C@H](C(=O)O)CC4)n4ncnc(N)c34)[nH]c12 = > 30 µM (inactive)
• COc1cc2nccc(Oc3ccc(NC(=O)C4(C(=O)Nc5ccc(F)cc5)CC4)cc3)c2cc1OC [CABOZANTINIB] = > 30 µM (inactive)

Next molecule, please.
Item COc1cccc(Nc2ncnn3ccc(CN4CC[C@@H](N)[C@H](O)C4)c23)c1 has what recorded Kd? > 30 µM (inactive)

====

Test Target: Tyrosine-protein kinase Yes (Homo sapiens, UniProt P07947); note: in the data inactive means no Kd found up to 30 µM
Sequence (P07947 whole entry): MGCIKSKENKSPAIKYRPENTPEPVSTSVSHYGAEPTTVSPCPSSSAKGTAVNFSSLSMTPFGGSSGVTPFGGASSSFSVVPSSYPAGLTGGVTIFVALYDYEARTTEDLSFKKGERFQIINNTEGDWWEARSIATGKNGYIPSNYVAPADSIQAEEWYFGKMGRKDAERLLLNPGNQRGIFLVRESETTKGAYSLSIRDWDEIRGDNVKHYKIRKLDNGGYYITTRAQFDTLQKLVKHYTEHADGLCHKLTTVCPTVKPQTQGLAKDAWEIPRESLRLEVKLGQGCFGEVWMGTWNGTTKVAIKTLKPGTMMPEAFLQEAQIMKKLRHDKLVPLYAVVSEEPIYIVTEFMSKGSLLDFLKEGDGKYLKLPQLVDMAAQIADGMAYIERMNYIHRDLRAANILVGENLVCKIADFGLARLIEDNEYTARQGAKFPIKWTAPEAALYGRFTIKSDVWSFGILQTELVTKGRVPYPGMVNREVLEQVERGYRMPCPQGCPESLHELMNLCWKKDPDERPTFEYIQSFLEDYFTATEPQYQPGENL
The source made the active and inactive calls.
Return exactly one item of active, inactive

Tell me the assay call for CCN(CCCOc1ccc2c(Nc3cc(CC(=O)Nc4cccc(F)c4)n[nH]3)ncnc2c1)CCOP(=O)(O)O please. inactive

Tell me the assay call for NC(=O)c1ccc(N(C(N)=O)c2c(F)cccc2F)nc1-c1ccc(F)cc1F please. inactive

Tell me the assay call for C[C@]1(O)C[C@@H](c2nc(-c3ccc4ccc(-c5ccccc5)nc4c3)c3c(N)nccn32)C1 please. inactive

Tell me the assay call for COc1cc2nccc(Oc3ccc(NC(=O)C4(C(=O)Nc5ccc(F)cc5)CC4)cc3)c2cc1OC [CABOZANTINIB] please. inactive

Tell me the assay call for CCOc1ccn(-c2ccc(F)cc2)c(=O)c1C(=O)Nc1ccc(Oc2ccnc(N)c2Cl)c(F)c1 please. inactive

Tell me the assay call for CNC(=O)c1cccc(-c2ccc3c(N4CCOC[C@@H]4C)nc(N4CCOC[C@@H]4C)nc3n2)c1 please. inactive

Tell me the assay call for CN(c1ncccc1CNc1nc(Nc2ccc3c(c2)CC(=O)N3)ncc1C(F)(F)F)S(C)(=O)=O please. inactive

====

Test Target: Serine/threonine-protein kinase LATS1 (Homo sapiens); note: in the data inactive means no Kd found up to 30 µM
Sequence (O95835 whole entry): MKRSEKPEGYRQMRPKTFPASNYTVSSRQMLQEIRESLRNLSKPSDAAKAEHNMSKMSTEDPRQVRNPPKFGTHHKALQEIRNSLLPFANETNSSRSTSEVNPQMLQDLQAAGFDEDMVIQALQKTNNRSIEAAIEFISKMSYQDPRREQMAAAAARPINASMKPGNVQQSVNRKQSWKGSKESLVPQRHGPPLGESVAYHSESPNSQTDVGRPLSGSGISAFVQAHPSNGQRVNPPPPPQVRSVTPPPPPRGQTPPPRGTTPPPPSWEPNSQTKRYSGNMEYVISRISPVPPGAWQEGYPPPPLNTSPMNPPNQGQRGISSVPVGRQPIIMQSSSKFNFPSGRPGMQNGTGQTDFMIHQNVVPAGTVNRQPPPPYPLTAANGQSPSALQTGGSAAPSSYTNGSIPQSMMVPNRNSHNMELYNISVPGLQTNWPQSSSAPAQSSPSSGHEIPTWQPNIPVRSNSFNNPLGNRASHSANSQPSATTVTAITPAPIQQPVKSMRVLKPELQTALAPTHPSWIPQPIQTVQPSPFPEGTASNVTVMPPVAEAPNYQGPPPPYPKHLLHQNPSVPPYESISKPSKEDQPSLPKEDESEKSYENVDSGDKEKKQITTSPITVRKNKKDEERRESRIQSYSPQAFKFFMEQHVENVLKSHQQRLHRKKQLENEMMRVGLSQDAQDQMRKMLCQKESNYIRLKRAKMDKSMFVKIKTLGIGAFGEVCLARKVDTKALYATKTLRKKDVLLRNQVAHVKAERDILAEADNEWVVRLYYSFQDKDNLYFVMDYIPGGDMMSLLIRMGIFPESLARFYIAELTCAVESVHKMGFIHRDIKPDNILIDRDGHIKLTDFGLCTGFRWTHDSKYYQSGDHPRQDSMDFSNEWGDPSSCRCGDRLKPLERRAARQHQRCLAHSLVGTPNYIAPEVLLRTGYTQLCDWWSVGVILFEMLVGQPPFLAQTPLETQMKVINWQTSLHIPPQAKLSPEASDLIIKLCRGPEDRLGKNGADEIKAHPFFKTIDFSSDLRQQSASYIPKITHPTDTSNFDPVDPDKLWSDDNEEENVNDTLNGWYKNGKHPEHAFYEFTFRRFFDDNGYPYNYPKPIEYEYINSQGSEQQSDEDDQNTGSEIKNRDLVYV
The source made the active and inactive calls.
Return exactly one item of true (active), false (inactive)

- CCc1cc2c(cc1N1CCC(N3CCOCC3)CC1)C(C)(C)c1[nH]c3cc(C#N)ccc3c1C2=O [ALECTINIB]: false
- CNC(=O)c1cccc(-c2ccc3c(N4CCOC[C@@H]4C)nc(N4CCOC[C@@H]4C)nc3n2)c1 [VISTUSERTIB]: false
- Cn1c(=O)c(F)c(Nc2ccc(I)cc2F)c2c(=O)n(C[C@@H](O)CO)cnc21 [TAK-733]: false

Tell me the assay call for Cc1c(Cn2c(C)nc3c(C(=O)O)cc(N4CCOCC4)cc32)cccc1C(F)(F)F [GSK-2636771] please. false

Tell me the assay call for Cn1cc(-c2[nH]c3cc(NC(=O)[C@H](N)C4CCCCC4)cc4c3c2C=NNC4=O)cn1 please. true

Tell me the assay call for C=CC(=O)Nc1cccc(Nc2nc(Nc3ccc(N4CCN(C(C)=O)CC4)cc3OC)ncc2C(F)(F)F)c1 [ROCILETINIB] please. false

Tell me the assay call for C=CCn1c(=O)c2cnc(Nc3ccc(N4CCN(C)CC4)cc3)nc2n1-c1cccc(C(C)(C)O)n1 [ADAVOSERTIB] please. false

Tell me the assay call for c1cc(OCCN2CCCCC2)cc(-c2n[nH]c3ccc(-c4nc[nH]n4)cc23)c1 [CC-401] please. false
